# system: human β3 adrenergic receptor (Homo sapiens, UniProt P13945)
# Construct: expressed in transfected cells; host or cells: Chinese hamster ovary (CHO) cells, stably transfected
# Sequence (P13945 whole entry): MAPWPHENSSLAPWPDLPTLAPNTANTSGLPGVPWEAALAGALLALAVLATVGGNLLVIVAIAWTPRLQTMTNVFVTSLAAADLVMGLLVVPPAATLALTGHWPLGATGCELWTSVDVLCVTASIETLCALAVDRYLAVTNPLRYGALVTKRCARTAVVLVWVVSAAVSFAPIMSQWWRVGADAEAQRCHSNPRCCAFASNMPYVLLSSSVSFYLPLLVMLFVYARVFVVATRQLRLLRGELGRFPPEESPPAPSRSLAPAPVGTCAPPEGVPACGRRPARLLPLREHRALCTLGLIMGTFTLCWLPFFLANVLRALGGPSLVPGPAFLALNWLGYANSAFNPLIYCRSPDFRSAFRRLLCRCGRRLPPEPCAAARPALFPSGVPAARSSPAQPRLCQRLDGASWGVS
# protocol_text: Beta-3 agonist in vitro functional assay: cAMP production (LANCE TR-FRET) in CHO cells stably transfected with the cloned β3 receptor
# Assay type: cell-based
# recorded_conditions: Table 8; Beta-3 agonist in vitro functional assay; read-out: Human β3 agonist functional activity
Provide the reported EC50 of each item.

I'd like to know its EC50. The molecule in question is O=C(c1ccc(C[C@@H]2CC[C@H]([C@H](O)c3ccccc3)N2)cc1)N1CCC2(CCNC2)CC1 [Example 306]
1 to 9.9 nM

Would you mind doing O=C(c1ccc(C[C@@H]2CC[C@H]([C@H](O)c3ccccc3)N2)cc1)N1CCC2(CC1)C(=O)Nc1ccccc12 [Example 299] as well?
10 to 99.9 nM

Please do the same for O=C1CC2(CCN(C(=O)c3ccc(C[C@@H]4CC[C@H]([C@H](O)c5ccccc5)N4)cc3)CC2)Oc2ccc(-c3nnn[nH]3)cc21 [Example 325] as well.
10 to 99.9 nM

Could you do the same for O=C1OC2(CCN(C(=O)c3ccc(C[C@@H]4CC[C@H]([C@H](O)c5ccccc5)N4)cc3)CC2)c2ccccc21 [Example 283] , please?
10 to 99.9 nM

How about O=C(c1ccc(C[C@@H]2CC[C@H]([C@H](O)c3ccccc3)N2)cc1)N1CCC2(CCc3ccccc3S2(=O)=O)CC1 [Example 336] ?
1 to 9.9 nM

Now give it for CC1OC(=O)C2(CCN(C(=O)c3ccc(C[C@@H]4CC[C@H]([C@H](O)c5ccccc5)N4)cc3)CC2)C1C (stereo partly shown) [Example 297] too.
1 to 9.9 nM

Another molecule to look at: O=C1OC2(CCN(C(=O)c3ccc(C[C@@H]4CC[C@H]([C@H](O)c5ccccc5)N4)cc3)CC2)c2cccnc21 [Example 286]
10 to 99.9 nM

###

For each record, write down the corresponding EC50.
# system: human β3 adrenergic receptor (Homo sapiens, UniProt P13945)
# Construct: expressed in transfected cells; host or cells: Chinese hamster ovary (CHO) cells, stably transfected
# protocol_text: Beta-3 agonist in vitro functional assay: cAMP production (LANCE TR-FRET) in CHO cells stably transfected with the cloned β3 receptor
# Type: cell-based
# recorded_conditions: Table 8; Beta-3 agonist in vitro functional assay; read-out: Human β3 agonist functional activity
# Protocol: Chinese hamster ovary (CHO) cells, stably transfected with the cloned β-adrenergic receptor (β1, β2 or β3) are harvested after 3 days of subculturing. Harvesting of cells is done with Enzyme-free Dissociation Media (Specialty Media). Cells are then counted and resuspended in assay buffer (Hank's Balanced salt solution supplemented with 5 mM HEPES, […]) containing a phosphodiesterase inhibitor (IBMX, 0.6 mM). […]

// fetch human β3 adrenergic receptor (Homo sapiens, UniProt P13945) EC50 for COC(=O)C1CC2(CCN(C(=O)c3ccc(C[C@@H]4CC[C@H]([C@H](O)c5ccccc5)N4)cc3)CC2)c2ccccc21 (stereo partly drawn)
10 to 99.9 nM

Now try O=C1CC2(CCN(C(=O)c3ccc(C[C@@H]4CC[C@H]([C@H](O)c5cccnc5)N4)cc3)CC2)Sc2ccccc21 .
10 to 99.9 nM

Field entry: O=C(c1ccc(C[C@@H]2CC[C@H]([C@H](O)c3ccccc3)N2)cc1)N1CCC2(CC1)C(=O)NCC2c1ccc(C(F)(F)F)cc1 (stereo partly drawn)
< 1 nM

###

# system: human β3 adrenergic receptor (Homo sapiens, UniProt P13945)
# Construct: expressed in transfected cells; host or cells: Chinese hamster ovary (CHO) cells, stably transfected
# protocol_text: Beta-3 agonist in vitro functional assay: cAMP production (LANCE TR-FRET) in CHO cells stably transfected with the cloned β3 receptor
# Assay type: cell-based
# recorded_conditions: Table 4; cAMP, CHO cells; read-out: Human β3 agonist functional activity
Record form. Attribute: EC50. Fill in for each entry.

# EC50 lookup, item O=C(c1ccc(C[C@@H]2CC[C@H]([C@H](O)c3ccccc3)N2)cc1)N1CCCC2(CCOC2=O)C1 (stereo partly shown)
10 to 99.9 nM

Likewise for CCS(=O)(=O)n1cc2c(n1)CN(C(=O)c1ccc(C[C@@H]3CC[C@H]([C@H](O)c4ccccc4)N3)cc1)C2 ?
100 to 999 nM

Queued: O=C(c1ccc(C[C@@H]2CC[C@H]([C@H](O)c3ccccc3)N2)cc1)N1CCC2(CCOC2=O)C1 (stereo partly shown)
10 to 99.9 nM

Please answer likewise for O=C(c1ccc(C[C@@H]2CC[C@H]([C@H](O)c3ccccc3)N2)cc1)N1CCC2c3cccnc3OC2C1 (stereo partly shown)
10 to 99.9 nM

Please answer likewise for O=C(c1ccc(C[C@@H]2CC[C@H]([C@H](O)c3ccccc3)N2)cc1)N1CC2CC(n3cnnn3)CC2C1 (stereo partly shown)
10 to 99.9 nM

One more compound: O=C(c1ccc(C[C@@H]2CC[C@H]([C@H](O)c3ccccc3)N2)cc1)N1CC2CC(n3nccn3)CC2C1 (stereo partly shown)
10 to 99.9 nM

Now consider O=C(c1ccc(C[C@@H]2CC[C@H]([C@H](O)c3ccccc3)N2)cc1)N1CCC2c3ccccc3OC2C1 (stereo partly shown) .
1 to 9.9 nM

###

Please respond with reported pEC50 for every item in the list.
# system: human β3 adrenergic receptor (Homo sapiens, UniProt P13945)
# Construct: expressed in transfected cells; host or cells: Chinese hamster ovary (CHO) cells, stably transfected
# protocol_text: Beta-3 agonist in vitro functional assay: cAMP production (LANCE TR-FRET) in CHO cells stably transfected with the cloned β3 receptor
# Assay type: cell-based
# recorded_conditions: Table 10; Beta-3 agonist in vitro functional assay; read-out: Human β3 agonist functional activity
# Experimental: Chinese hamster ovary (CHO) cells, stably transfected with the cloned β-adrenergic receptor (β1, β2 or β3) are harvested after 3 days of subculturing. Harvesting of cells is done with Enzyme-free Dissociation Media (Specialty Media). Cells are then counted and resuspended in assay buffer (Hank's Balanced salt solution supplemented with 5 mM HEPES, […]) containing a phosphodiesterase inhibitor (IBMX, 0.6 mM). […]
pEC50: −log10 of the molar value.

# value lookup — system human β3 adrenergic receptor (Homo sapiens, UniProt P13945), readout pEC50, item CC(C(=O)NCC1CCC1)N1CCN(C(=O)c2ccc(C[C@@H]3CC[C@H]([C@H](O)c4ccccc4)N3)cc2)CC1 (stereo partly shown)
8.00 to 9.00

Then this molecule: CCNC(=O)C(C)N1CCN(C(=O)c2ccc(C[C@@H]3CC[C@H]([C@H](O)c4ccccc4)N3)cc2)CC1 (stereo partly shown)
6.00 to 7.00

Next molecule: CC(C(=O)N1CCC(F)CC1)N1CCN(C(=O)c2ccc(C[C@@H]3CC[C@H]([C@H](O)c4ccccc4)N3)cc2)CC1 (stereo partly shown)
7.00 to 8.00

Next record, please: CC(C(=O)N(C)CCO)N1CCN(C(=O)c2ccc(C[C@@H]3CC[C@H]([C@H](O)c4ccccc4)N3)cc2)CC1 (stereo partly shown)
6.00 to 7.00

###

# system: human β3 adrenergic receptor (Homo sapiens)
# Construct: expressed in transfected cells; host or cells: Chinese hamster ovary (CHO) cells, stably transfected
# protocol_text: Beta-3 agonist in vitro functional assay: cAMP production (LANCE TR-FRET) in CHO cells stably transfected with the cloned β3 receptor
# Assay type: cell-based
# recorded_conditions: Table 8; Beta-3 agonist in vitro functional assay; read-out: Human β3 agonist functional activity
metric_name: EC50

For the compound shown here, O=C(c1ccc(C[C@@H]2CC[C@H]([C@H](O)c3ccccc3)N2)cc1)N1CCC2(CCCO2)CC1 , give the reported EC50.
10 to 99.9 nM

Same lookup for CC1(C)CC2(CCN(C(=O)c3ccc(C[C@@H]4CC[C@H]([C@H](O)c5ccc[n+]([O-])c5)N4)cc3)CC2)C(=O)O1 , please.
100 to 999 nM

Same read-out for O=C(c1ccc(C[C@@H]2CC[C@H]([C@H](O)c3ccccc3)N2)cc1)N1CCC2(CCCC2n2cccn2)CC1 (stereo partly drawn) ?
100 to 999 nM

How about this compound: O=C(c1ccc(C[C@@H]2CC[C@H]([C@H](O)c3ccccc3)N2)cc1)N1CCC2(CCCC2O)CC1 (stereo partly drawn)
100 to 999 nM

Repeat with CC1COC(=O)C12CCN(C(=O)c1ccc(C[C@@H]3CC[C@H]([C@H](O)c4ccccc4)N3)cc1)CC2 (stereo partly drawn)
1 to 9.9 nM

Note, next up: O=C1OC2(CCN(C(=O)c3ccc(C[C@@H]4CC[C@H]([C@H](O)c5ccccc5)N4)cc3)CC2)c2scnc21
10 to 99.9 nM

Also O=C1CC2(CCN(C(=O)c3ccc(C[C@@H]4CC[C@H]([C@H](O)c5ccccc5)N4)cc3)CC2)Oc2ccccc21 ?
10 to 99.9 nM

Next compound up: O=C(c1ccc(C[C@@H]2CC[C@H]([C@H](O)c3ccccc3)N2)cc1)N1CCC2(CC1)Nc1ccccc1S(=O)(=O)N2
1 to 9.9 nM

Repeat with O=C1CCC2(CCN(C(=O)c3ccc(C[C@@H]4CC[C@H]([C@H](O)c5ccccc5)N4)cc3)CC2)O1
10 to 99.9 nM

Follow-up item: COc1ccc2c(n1)C1(CCN(C(=O)c3ccc(C[C@@H]4CC[C@H]([C@H](O)c5ccccc5)N4)cc3)CC1)OC2=O
10 to 99.9 nM

Lookup CC1CC2(CCN(C(=O)c3ccc(C[C@@H]4CC[C@H]([C@H](O)c5ccccc5)N4)cc3)CC2)OC1=O (stereo partly drawn)
10 to 99.9 nM

What do you get for O=C(c1ccc(C[C@@H]2CC[C@H]([C@H](O)c3ccccc3)N2)cc1)N1CCC2(CC1)C(=O)NCC2c1cccc(C(F)(F)F)c1 (stereo partly drawn) ?
< 1 nM

Another: O=C(c1ccc(C[C@@H]2CC[C@H]([C@H](O)c3cccnc3)N2)cc1)N1CCC2(CC1)SCc1ccccc12
100 to 999 nM

Would you mind doing O=C(c1ccc(C[C@@H]2CC[C@H]([C@H](O)c3ccccc3)N2)cc1)N1CCC2(CCCNC2=O)CC1 as well?
100 to 999 nM

How about O=C1C=C(c2ccccc2)C2(CCN(C(=O)c3ccc(C[C@@H]4CC[C@H]([C@H](O)c5ccccc5)N4)cc3)CC2)O1 ?
1 to 9.9 nM

Further, for NC1CCCC12CCN(C(=O)c1ccc(C[C@@H]3CC[C@H]([C@H](O)c4ccccc4)N3)cc1)CC2 (stereo partly drawn) ?
100 to 999 nM

Moving on to O=C(c1ccc(C[C@@H]2CC[C@H]([C@H](O)c3ccccc3)N2)cc1)N1CCC2(CC1)NCNC2=O
10 to 99.9 nM

Also check O=C1NC(=O)C2(CCN(C(=O)c3ccc(C[C@@H]4CC[C@H]([C@H](O)c5ccccc5)N4)cc3)CC2)N1
10 to 99.9 nM

What do we get for CC1(Cc2ccc(F)cc2)CC2(CCN(C(=O)c3ccc(C[C@@H]4CC[C@H]([C@H](O)c5ccccc5)N4)cc3)CC2)OC1=O (stereo partly drawn) ?
< 1 nM

What would you report for Cn1nnnc1C1(C)CCN(C(=O)c2ccc(C[C@@H]3CC[C@H]([C@H](O)c4ccccc4)N3)cc2)CC1 ?
100 to 999 nM

Param item: CC1(C)CC2(CCN(C(=O)c3ccc(C[C@@H]4CC[C@H]([C@H](O)c5ccccc5)N4)cc3)CC2)OC1=O
10 to 99.9 nM

Subsequent entry: O=C(c1ccc(C[C@@H]2CC[C@H]([C@H](O)c3ccccc3)N2)cc1)N1CCC2(CC1)C(=O)Oc1ccccc12
10 to 99.9 nM

O=C1OC2(CCN(C(=O)c3ccc(C[C@@H]4CC[C@H]([C@H](O)c5ccccc5)N4)cc3)CC2)c2ccncc21 , same question.
10 to 99.9 nM

O=C(c1ccc(C[C@@H]2CC[C@H]([C@H](O)c3ccccc3)N2)cc1)N1CCC2(CCc3cnoc32)CC1 ?
10 to 99.9 nM

Item: CC1(C)CC2(CCN(C(=O)c3ccc(C[C@@H]4CC[C@H]([C@H](O)c5ccccc5)N4)cc3)CC2)C(=O)O1
1 to 9.9 nM

One more compound: O=C1OC2(CCN(C(=O)c3ccc(C[C@@H]4CC[C@H]([C@H](O)c5cccnc5)N4)cc3)CC2)c2ccccc21
1 to 9.9 nM

Now give it for O=C(c1ccc(C[C@@H]2CC[C@H]([C@H](O)c3ccccc3)N2)cc1)N1CCC2(CC1)CC(c1ccc(F)cc1)CO2 (stereo partly drawn) too.
100 to 999 nM
